Entries annotated with measured melting point
Give just the numeric value; °C need not be written.

Prompt line: // fetch melting point given entry CCOc1ccccc1N1CCN(c2nc(N3CCOCC3)cc(N3CCOCC3)n2)CC1
Response line: 184

Prompt line: Could you please provide reported melting point for Fc1c(N2CCOCC2)nc(N2CCN(c3ccccc3Cl)CC2)nc1N1CCOCC1 ? Thanks!
Response line: 118

Prompt line: Look up and report measured melting point for this entry: Fc1ccccc1N1CCN(c2nc(N3CCOCC3)cc(N3CCOCC3)n2)CC1
Response line: 148

Prompt line: Indicate the recorded melting point value for this compound: Cc1ccccc1N1CCN(c2nc(N3CCOCC3)c(F)c(N3CCOCC3)n2)CC1
Response line: 72

----------
reported_metric: melting point

Worked cases, answers included:
molecule	melting point
OC1(c2ccccc2)CCN(c2nc(N3CCOCC3)nc(N3CCOCC3)c2F)CC1 [Compound 117]	128 to 131 °C
Cc1cccc(N2CCN(c3nc(N4CCOCC4)nc(N4CCN(C)CC4)c3F)CC2)c1C [Compound 186]	67 to 68 °C
Fc1c(N2CCOCC2)nc(N2CCN(c3ccc(Cl)cc3)CC2)nc1N1CCOCC1 [Compound 109]	215 °C
COc1ccccc1N1CCN(c2nc(N(C)C)nc(N3CCOCC3)c2F)CC1 [Compound 111]	108 °C

Prompt line: Return melting point for the following molecule: Nc1c(N2CCOCC2)nc(/C=C/c2ccc(F)cc2)nc1N1CCOCC1 [Compound 135]
Response line: 193 to 195 °C

Prompt line: Consider the molecule Nc1c(N2CCOCC2)nc(/C=C/c2cccs2)nc1N1CCOCC1 [Compound 132] . State its measured melting point.
Response line: 221 to 223 °C

Prompt line: Give a short answer stating reported melting point for Oc1ccc(N2CCN(c3nc(N4CCOCC4)c(F)c(N4CCOCC4)n3)CC2)cc1 [Compound 107] .
Response line: 141 °C

Prompt line: Tell me melting point reported for c1ccc(Cc2c(N3CCOCC3)nc(N3CCOCC3)nc2N2CCN(c3ccccc3)CC2)cc1 [Compound 49]
Response line: 162 to 165 °C

----------
Examples of compounds with documented melting point follow.

Illustrative cases are given below, each with its answer.
sample_smiles	melting point
COc1c(N2CCOCC2)nc(N2CCOCC2)nc1N1CCN(c2ccccc2)CC1	118 to 120 °C
CC(=O)c1ccc(N2CCN(c3cc(N4CCOCC4)nc(N4CCOCC4)n3)CC2)cc1	198 to 201 °C
Cc1ccccc1N1CCN(c2nc(N3CCOCC3)c(F)c(N3CCN(c4ccccc4C)CC3)n2)CC1	106 to 107 °C

Now, please, on to the next compound.
Prompt line: Please supply the value of reported melting point for the item Cc1cccc(N2CCN(c3nc(N4CCOCC4)c(F)c(N4CCN(C)CC4)n3)CC2)c1C
Response line: 67 to 68 °C

----------
Listed molecules paired with reported melting point

Known melting point results, listed for orientation:
sample_smiles	melting point
Clc1ccc(N2CCN(c3nc(N4CCOCC4)cc(N4CCOCC4)n3)CC2)cc1	213 °C
c1c(N2CCOCC2)nc(N2CCN(C3CCCCC3)CC2)nc1N1CCOCC1	171 to 174 °C
Fc1ccc(N2CCN(c3nc(N4CCOCC4)nc(N4CCOCC4)c3F)CC2)cc1	171 to 174 °C

Prompt line: Let me know recorded melting point for Cc1c(N2CCOCC2)nc(N2CCOCC2)nc1N1CCN(c2ccccc2)CC1 , thanks.
Response line: 149 to 152 °C

Prompt line: Consider the molecule CN(C)c1nc(N2CCOCC2)c(F)c(N2CCN(c3ccccc3F)CC2)n1 and give its recorded melting point.
Response line: 95 °C

Prompt line: Item CC(=O)Nc1c(N2CCOCC2)nc(N2CCN(c3ccccc3)CC2)nc1N1CCOCC1 : provide melting point
Response line: 229 to 230 °C

Prompt line: Please look at this molecule and report its melting point: CCOc1ccccc1N1CCN(c2nc(N3CCOCC3)c(F)c(N3CCOCC3)n2)CC1
Response line: 145 °C

Prompt line: Please list melting point recorded for the molecule Fc1ccccc1N1CCN(c2cc(N3CCOCC3)nc(N3CCN(c4ccccc4)CC3)n2)CC1
Response line: 90 to 91 °C
